Each entry below carries its recorded pIC50.
- system: Apolipoprotein L1 (Homo sapiens, UniProt O14791)
- assay-method-text: Inhibition of APOL1 G1 variant in human HEK293-T-REx cells measured by Thallium assay
pIC50: −log10 of the molar value.

Sample records with pIC50:
- O=C(CC1CC(c2c(-c3ccc(F)cc3)[nH]c3c(F)cc(F)cc23)C1)NCCO (stereo not given): < 6.00
- CC(C)CC(NCC1CC(c2c(-c3ccc(F)cc3)[nH]c3c(F)cc(F)cc23)C1)C(N)=O (stereo not given): < 6.00
- CC(NC(=O)C1CC(Cc2c(-c3ccc(F)cc3)[nH]c3c(F)cc(F)cc23)C1)c1ccn(C)n1 (stereo not given): < 6.00
- C[C@@H](O)CNC(=O)[C@H]1C[C@H](c2c(-c3ccc(F)cc3)[nH]c3c(F)cc(F)cc32)C1: 9.60
- CC(CO)(CO)NC(=O)[C@H]1C[C@H](c2c(-c3ccc(F)cc3)[nH]c3c(F)cc(F)cc32)C1: > 6.60

Indicate its recorded pIC50; the molecule in question is O=C(N[C@H]1C[C@H](O)C1)[C@H]1C[C@H](c2c(-c3ccc(F)cc3)[nH]c3c(F)cc(F)cc32)C1
< 6.00

Indicate its recorded pIC50; the molecule in question is CC(C)(O)CNC(=O)C1CC(Cc2c(-c3ccc(F)cc3)[nH]c3c(F)cc(F)cc23)C1 (stereo not given)
< 6.00

Indicate its recorded pIC50; the molecule in question is C[C@@H](CO)NC(=O)CC1CC(c2c(-c3ccc(F)cc3)[nH]c3c(F)cc(F)cc23)C1 (stereo not given in full)
< 6.00

Indicate its recorded pIC50; the molecule in question is COCC1(CNC(=O)[C@H]2C[C@H](c3c(-c4ccc(F)cc4)[nH]c4c(F)cc(F)cc43)C2)CC1
< 6.00

====

- system: Apolipoprotein L1 (Homo sapiens, UniProt O14791)
- assay-method-text: Inhibition of APOL1 G1 variant in human HEK293-T-REx cells measured by Thallium assay
assay-metric: IC50

Retrieve IC50 on Apolipoprotein L1 (Homo sapiens, UniProt O14791); query Cc1nnc(CNC(=O)[C@H]2C[C@H](c3c(-c4ccc(F)cc4)[nH]c4c(F)cc(F)cc43)C2)o1
0.25 nM

Retrieve IC50 on Apolipoprotein L1 (Homo sapiens, UniProt O14791); query O=C(NC[C@@H](O)CO)[C@H]1C[C@H](c2c(-c3ccc(F)cc3)[nH]c3c(F)cc(F)cc32)C1
> 1000 nM

Retrieve IC50 on Apolipoprotein L1 (Homo sapiens, UniProt O14791); query CC(C)(O)CNC(=O)NC[C@H]1C[C@H](c2c(-c3ccc(F)cc3)[nH]c3c(F)cc(F)cc32)C1
> 1000 nM

Retrieve IC50 on Apolipoprotein L1 (Homo sapiens, UniProt O14791); query O=C1NCC[C@H]1NC(=O)[C@H]1C[C@H](c2c(-c3ccc(F)cc3)[nH]c3c(F)cc(F)cc32)C1
0.25 nM

Retrieve IC50 on Apolipoprotein L1 (Homo sapiens, UniProt O14791); query C[C@H]1CN(C(=O)[C@H]2C[C@H](c3c(-c4ccc(F)cc4)[nH]c4c(F)cc(F)cc43)C2)CC[C@@H]1O
> 1000 nM

Retrieve IC50 on Apolipoprotein L1 (Homo sapiens, UniProt O14791); query COCC1(CNC(=O)C2CC(Cc3c(-c4ccc(F)cc4)[nH]c4c(F)cc(F)cc34)C2)CC1 (configuration not stated)
> 1000 nM

Retrieve IC50 on Apolipoprotein L1 (Homo sapiens, UniProt O14791); query O=C(NCc1ccn[nH]1)[C@H]1C[C@H](c2c(-c3ccc(F)cc3)[nH]c3c(F)cc(F)cc32)C1
0.25 nM

====

Each entry below carries its recorded IC50.
- system: Apolipoprotein L1 (Homo sapiens, UniProt O14791)
- assay-method-text: Inhibition of APOL1 G1 variant in human HEK293-T-REx cells measured by Thallium assay

- CON(C)C(=O)CN[C@H]1C[C@H](c2c(-c3ccc(F)cc3)[nH]c3c(F)cc(F)cc32)C1: > 1 µM

Indicate its recorded IC50; the molecule in question is NCC(O)CNC(=O)[C@H]1C[C@H](c2c(-c3ccc(F)cc3)[nH]c3c(F)cc(F)cc32)C1 (stereo partly specified)
0.00025 µM

====

- system: Apolipoprotein L1 (Homo sapiens, UniProt O14791)
- assay-method-text: Inhibition of APOL1 G1 variant in human HEK293-T-REx cells measured by Thallium assay
assay-metric: IC50

Sample records with IC50:
• CS(=O)(=O)CCNC(=O)[C@H]1C[C@H](c2c(-c3ccc(F)cc3)[nH]c3c(F)cc(F)cc32)C1 = < 0.25 µM
• CC(O)C(C)NC(=O)O[C@H]1C[C@H](c2c(-c3ccc(F)cc3)[nH]c3c(F)cc(F)cc32)C1 (stereo not given in full) = > 1 µM
• O=C(NC1CC1)O[C@H]1C[C@H](c2c(-c3ccc(F)cc3)[nH]c3c(F)cc(F)cc32)C1 = 0.00025 µM

Indicate its recorded IC50; the compound in question is C[C@H](CO)NC(=O)NC[C@H]1C[C@H](c2c(-c3ccc(F)cc3)[nH]c3c(F)cc(F)cc32)C1
> 1 µM

Indicate its recorded IC50; the compound in question is O=C([C@H]1C[C@H](c2c(-c3ccc(F)cc3)[nH]c3c(F)cc(F)cc32)C1)N1C[C@@H](O)[C@H](O)C1
> 1 µM
